Here, each record is paired with measured Activity data.
assayedSystem: Retinoic acid receptor RXR-alpha (Homo sapiens)
Sequence (whole entry): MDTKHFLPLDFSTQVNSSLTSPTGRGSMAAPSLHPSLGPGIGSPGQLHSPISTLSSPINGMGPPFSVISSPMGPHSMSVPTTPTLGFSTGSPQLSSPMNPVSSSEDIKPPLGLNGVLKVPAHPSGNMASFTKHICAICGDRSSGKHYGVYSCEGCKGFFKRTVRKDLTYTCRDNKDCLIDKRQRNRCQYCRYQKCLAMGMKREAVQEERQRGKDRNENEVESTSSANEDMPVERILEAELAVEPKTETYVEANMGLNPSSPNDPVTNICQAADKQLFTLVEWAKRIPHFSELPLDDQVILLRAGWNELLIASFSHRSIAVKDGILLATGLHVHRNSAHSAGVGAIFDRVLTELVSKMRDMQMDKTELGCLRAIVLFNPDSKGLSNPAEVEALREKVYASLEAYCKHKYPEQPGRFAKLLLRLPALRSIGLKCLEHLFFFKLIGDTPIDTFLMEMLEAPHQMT
runDescription: Agonist activity at human RXRalpha expressed in human HCT116 cells assessed as increase in RXRE-mediated transcription at 100 nM incubated for 24 hrs by RXRE luciferase reporter gene assay relative to bexarotene
Assay type: cell-based

Consider the following illustrative entries.
• CCN(c1ccc(C(=O)O)c(F)c1)c1cc2c(cc1C)C(C)(C)CCC2(C)C = 16 to 32%
• CCN(c1ccc(C(=O)O)cc1)c1cc2c(cc1C)C(C)(C)CCC2(C)C = 16 to 32%
• CCN(c1ccc(C(=O)O)cc1)c1ccc2c(c1)C(C)(C)CCC2(C)C = 16 to 32%
• CCN(c1ccc2c(c1)C(C)(C)CCC2(C)C)c1ncc(C(=O)O)cn1 = 68 to 89%

Looking up "CCN(c1ccc2c(c1)C(C)(C)CCC2(C)C)c1ccc(C(=O)O)cn1" , I see its Activity listed as 68 to 89%

----------
Here, each record is paired with measured Activity data.
assayedSystem: Retinoid X receptor (Homo sapiens) (UniProt P28702+P48443+P19793)
runDescription: Agonist activity at human RXR binding domain and activation domain expressed in human HCT116 cells assessed as rexinoid activity at 1000 nM incubated for 24 hrs by luciferase reporter gene based mammalian two-hybrid assay relative to bexarotene
Assay type: cell-based

- CCN(c1ccc2c(c1)C(C)(C)CCC2(C)C)c1cnc(C(=O)O)cn1: 35 to 58%

Looking up "CCN(c1ccc2c(c1)C(C)(C)CCC2(C)C)c1ccc(C(=O)O)cn1" , I see its Activity listed as 35 to 58%

Looking up "C=C(c1ccc(S(=O)(=O)O)cc1)c1cc2c(cc1C)C(C)(C)CCC2(C)C" , I see its Activity listed as 17%

Looking up "CCN(c1ccc(C(=O)O)cc1)c1cc2c(cc1C)C(C)(C)CCC2(C)C" , I see its Activity listed as 51 to 56%

Looking up "CCN(c1ncc(C(=O)O)cn1)c1cc2c(cc1C)C(C)(C)CCC2(C)C" , I see its Activity listed as 35 to 58%

Looking up "CCN(c1ccc(C(=O)O)cn1)c1cc2c(cc1C)C(C)(C)CCC2(C)C" , I see its Activity listed as 35 to 58%

Looking up "CCN(c1ccc2c(c1)C(C)(C)CCC2(C)C)c1ncc(C(=O)O)cn1" , I see its Activity listed as 35 to 58%

Looking up "CCN(c1ccc(C(=O)O)c(F)c1)c1cc2c(cc1C)C(C)(C)CCC2(C)C" , I see its Activity listed as 51 to 56%

----------
assayedSystem: Retinoid X receptor (Homo sapiens) (UniProt P28702+P48443+P19793)
runDescription: Agonist activity at human RXR binding domain and activation domain expressed in human HCT116 cells assessed as rexinoid activity at 25 nM incubated for 24 hrs by luciferase reporter gene based mammalian two-hybrid assay relative to bexarotene
Assay type: cell-based
measure: Activity (%)

- Cc1cc2c(cc1C(=O)c1ccc(S(=O)(=O)O)cc1)C(C)(C)CCC2(C)C: 0.6

1 = CCN(c1cnc(C(=O)O)cn1)c1cc2c(cc1C)C(C)(C)CCC2(C)C
2 = C=C(c1ccc(S(=O)(=O)O)cc1)c1cc2c(cc1C)C(C)(C)CCC2(C)C
3 = CCN(c1ccc2c(c1)C(C)(C)CCC2(C)C)c1cnc(C(=O)O)cn1
Qu. Highest Activity first, then in falling order down to the smallest. Kindly provide the labels arranged according to the requested ordering.
Ans. 3, 1, 2

----------
assayedSystem: Retinoid X receptor (Homo sapiens) (UniProt P28702+P48443+P19793)
runDescription: Agonist activity at human RXR binding domain and activation domain expressed in human HCT116 cells assessed as rexinoid activity at 100 nM incubated for 24 hrs by luciferase reporter gene based mammalian two-hybrid assay relative to bexarotene
Format: cell-based
Active and inactive are the calls of the source. No cut-off for these calls is given here.
measure: Activity

Consider the following illustrative entries.
• CCN(c1ccc(C(=O)O)c(F)c1)c1ccc2c(c1)C(C)(C)CCC2(C)C = Active
• CCN(c1ccc(C(=O)O)cc1)c1ccc2c(c1)C(C)(C)CCC2(C)C = Active
• CCN(c1ccc2c(c1)C(C)(C)CCC2(C)C)c1ncc(C(=O)O)cn1 = 135 to 146%
• CCN(c1ccc(C(=O)O)cc1)c1cc2c(cc1C)C(C)(C)CCC2(C)C = Active
• Cc1cc2c(cc1C(=O)c1ccc(S(=O)(=O)O)cc1)C(C)(C)CCC2(C)C = inactive

Looking up "CCN(c1ccc(C(=O)O)c(F)c1)c1cc2c(cc1C)C(C)(C)CCC2(C)C" , I see its Activity listed as Active

Looking up "C=C(c1ccc(S(=O)(=O)O)cc1)c1cc2c(cc1C)C(C)(C)CCC2(C)C" , I see its Activity listed as inactive

Looking up "CCN(c1ccc(C(=O)O)cn1)c1cc2c(cc1C)C(C)(C)CCC2(C)C" , I see its Activity listed as 135 to 146%

Looking up "CCN(c1ccc2c(c1)C(C)(C)CCC2(C)C)c1ccc(C(=O)O)cn1" , I see its Activity listed as 135 to 146%

Looking up "CCN(c1ncc(C(=O)O)cn1)c1cc2c(cc1C)C(C)(C)CCC2(C)C" , I see its Activity listed as 135 to 146%

----------
assayedSystem: Retinoic acid receptor RXR-alpha (Homo sapiens)
runDescription: Agonist activity at human RXRalpha expressed in human HCT116 cells assessed as increase in RXRE-mediated transcription at 1000 nM incubated for 24 hrs by RXRE luciferase reporter gene assay relative to bexarotene
Type: cell-based
Calls of active or inactive are those of the source. The calls are words filed in the database; no cut-off is given here.
measure: Activity

* CCN(c1ccc(C(=O)O)cc1)c1ccc2c(c1)C(C)(C)CCC2(C)C | Active
* CCN(c1ncc(C(=O)O)cn1)c1cc2c(cc1C)C(C)(C)CCC2(C)C | 20 to 43%
* CCN(c1ccc(C(=O)O)c(F)c1)c1cc2c(cc1C)C(C)(C)CCC2(C)C | Active
* CCN(c1ccc2c(c1)C(C)(C)CCC2(C)C)c1ccc(C(=O)O)cn1 | 20 to 43%

Please turn your attention to the following entry.
Looking up "CCN(c1ccc(C(=O)O)cn1)c1cc2c(cc1C)C(C)(C)CCC2(C)C" , I see its Activity listed as 20 to 43%

----------
assayedSystem: Retinoic acid receptor RXR-alpha/oxysterols receptor LXR-alpha (Homo sapiens, UniProt P19793+Q13133)
Sequence (Q13133 whole entry, one chain of several): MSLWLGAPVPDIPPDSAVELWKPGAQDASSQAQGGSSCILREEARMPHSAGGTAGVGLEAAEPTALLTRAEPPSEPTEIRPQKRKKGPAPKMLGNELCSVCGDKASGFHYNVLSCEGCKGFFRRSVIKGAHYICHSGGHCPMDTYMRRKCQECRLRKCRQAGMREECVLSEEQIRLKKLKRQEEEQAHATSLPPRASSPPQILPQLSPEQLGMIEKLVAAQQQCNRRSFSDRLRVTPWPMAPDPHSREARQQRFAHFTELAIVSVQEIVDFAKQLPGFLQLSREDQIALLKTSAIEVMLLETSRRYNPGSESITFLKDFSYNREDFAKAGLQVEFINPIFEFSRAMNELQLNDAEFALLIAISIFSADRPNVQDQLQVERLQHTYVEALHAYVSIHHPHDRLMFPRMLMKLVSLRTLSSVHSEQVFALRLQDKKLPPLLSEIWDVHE
runDescription: Agonist activity at human RXRalpha/LXRalpha expressed in human HCT116 cells assessed as reduction in SREBP-mediated transcription activity at 100 nM incubated for 24 hrs by luciferase reporter gene assay relative to bexarotene
Type: cell-based
Set-up: scale not given: the % may be the effect or the level left
testConditions: 0.1 µM
measure: Activity

Consider the following illustrative entries.
* CCN(c1ccc(C(=O)O)cc1)c1ccc2c(c1)C(C)(C)CCC2(C)C | 54 to 79%
* CCN(c1cnc(C(=O)O)cn1)c1cc2c(cc1C)C(C)(C)CCC2(C)C | 54 to 79%
* CCN(c1ccc2c(c1)C(C)(C)CCC2(C)C)c1cnc(C(=O)O)cn1 | 54 to 79%
* CCN(c1ccc(C(=O)O)cc1)c1cc2c(cc1C)C(C)(C)CCC2(C)C | 54 to 79%
* CCN(c1ccc(C(=O)O)c(F)c1)c1ccc2c(c1)C(C)(C)CCC2(C)C | 54 to 79%

Looking up "Cc1cc2c(cc1C(=O)c1ccc(S(=O)(=O)O)cc1)C(C)(C)CCC2(C)C" , I see its Activity listed as Not Active

Looking up "CCN(c1ccc(C(=O)O)c(F)c1)c1cc2c(cc1C)C(C)(C)CCC2(C)C" , I see its Activity listed as 54 to 79%

Looking up "CCN(c1ccc2c(c1)C(C)(C)CCC2(C)C)c1ncc(C(=O)O)cn1" , I see its Activity listed as Active

Looking up "CCN(c1ccc2c(c1)C(C)(C)CCC2(C)C)c1ccc(C(=O)O)cn1" , I see its Activity listed as Active

Looking up "C=C(c1ccc(S(=O)(=O)O)cc1)c1cc2c(cc1C)C(C)(C)CCC2(C)C" , I see its Activity listed as Not Active

Looking up "CCN(c1ncc(C(=O)O)cn1)c1cc2c(cc1C)C(C)(C)CCC2(C)C" , I see its Activity listed as Active

Looking up "CCN(c1ccc(C(=O)O)cn1)c1cc2c(cc1C)C(C)(C)CCC2(C)C" , I see its Activity listed as Active
